- experiment-description: Equilibrium solubility of the compound at pH 7.4
- Format: physicochemical
- test-parameters: buffer
metric-name: solubility thermodynamic

Worked cases, answers included:
>>> experimental_result("O=C(NS(=O)(=O)c1ccc(N[C@H](CCN2CCOCC2)CSc2ccccc2)c(S(=O)(=O)C(F)(F)F)c1)c1ccc(N2CCN(Cc3ccccc3-c3ncc(Cl)cn3)CC2)cc1")
"< 1 µM"
>>> experimental_result("O=C(NS(=O)(=O)c1ccc(N[C@H](CCN2CCOCC2)CSc2ccccc2)c(S(=O)(=O)C(F)(F)F)c1)c1ccc(N2CCC([S@+]([O-])c3ccccc3-c3ccc(Cl)cc3)CC2)cc1")
"12 µM"
>>> experimental_result("O=C(NS(=O)(=O)c1ccc(N[C@H](CCN2CCOCC2)CSc2ccccc2)c(S(=O)(=O)C(F)(F)F)c1)c1ccc(N2CCC(Sc3ccccc3-c3ccc(Cl)cc3)CC2)cc1")
"27 µM"
>>> experimental_result("N=C(NS(=O)(=O)c1ccc(N[C@H](CCN2CCOCC2)CSc2ccccc2)c(S(=O)(=O)C(F)(F)F)c1)c1ccc(N2CCN(Cc3ccccc3-c3ccc(Cl)cc3)CC2)cc1")
"< 1 µM"

Now for another entry.
Briefly, solubility thermodynamic measured for O=C(NS(=O)(=O)c1ccc(N[C@H](CCN2CCOCC2)CSc2ccccc2)c(S(=O)(=O)C(F)(F)F)c1)c1ccc(N2CCP(=O)(Cc3ccccc3-c3ccc(Cl)cc3)CC2)cc1 : 21 µM
